Assay System: Free fatty acid receptor 4 (Homo sapiens)
Sequence (Q5NUL3 whole entry): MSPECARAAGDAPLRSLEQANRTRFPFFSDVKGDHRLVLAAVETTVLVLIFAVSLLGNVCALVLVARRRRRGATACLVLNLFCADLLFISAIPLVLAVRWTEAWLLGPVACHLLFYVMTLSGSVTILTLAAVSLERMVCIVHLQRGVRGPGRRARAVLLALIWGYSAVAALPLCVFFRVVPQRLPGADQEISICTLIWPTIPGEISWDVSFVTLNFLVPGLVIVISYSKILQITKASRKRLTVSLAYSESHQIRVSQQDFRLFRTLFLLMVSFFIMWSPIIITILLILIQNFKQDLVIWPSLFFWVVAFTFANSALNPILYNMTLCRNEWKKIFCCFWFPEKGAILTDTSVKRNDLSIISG
Test Protocol: Agonist activity at human GPR120 expressed in CHO-K1 cells assessed as […] by DiscoveRx PathHunter beta-arrestin assay
Assay type: functional, cell-based
Please respond with reported pEC50 for every item in the list.
One number for each entry, as −log10 of the molar value.

The cases that follow already have their pEC50 on record.
CCCc1onc(-c2ccc(Cl)cc2)c1COc1ccc(CCC(=O)O)c(C)c1C ... 6.89
O=C(O)CCc1cc(F)c(OCc2c(-c3ccc(Cl)cc3)noc2C(F)(F)F)c(F)c1 ... 6.80
CCc1onc(-c2ccc(Cl)cc2)c1COc1ccc(CCC(=O)O)c(C)c1C ... 6.40
O=C(O)CCc1cc(F)c(OCc2c(-c3ccc(C(F)(F)F)cc3)noc2C(F)(F)F)c(F)c1 ... 6.72
Cc1noc(-c2ccc(Cl)cc2)c1COc1ccc(CCC(=O)O)c(C)c1C ... 6.09
Cc1ccc(-c2noc(C(F)(F)F)c2COc2c(F)cc(CC(C)C(=O)O)cc2F)cc1 (stereo unspecified) ... 6.80
Cc1c(CCC(=O)O)ccc(OCc2ccnn2-c2ccc(Cl)cc2)c1C ... 5.69
Cc1onc(-c2ccc(Cl)cc2)c1COc1ccc(CCC(=O)O)c(C)c1C ... 6.12

Look at each compound and report its pEC50.
1. Cc1c(CCC(=O)O)ccc(OCc2c(-c3ccc(Cl)cc3)noc2C(F)(F)F)c1C
2. CCc1ccc(-n2nccc2COc2ccc(CCC(=O)O)c(C)c2C)cc1
3. Cc1c(CCC(=O)O)ccc(OCc2cccn2-c2ccc(Cl)cc2)c1C
4. O=C(O)CCc1ccc(OCc2c(-c3ccc(Cl)cc3)noc2C(F)(F)F)c(F)c1F
5. O=C(O)CCc1cc(F)c(OCc2c(-c3ccccc3)noc2C(F)(F)F)c(F)c1

Reply |
1. 6.80
2. 5.94
3. 6.03
4. 6.85
5. 7.16

List pEC50 for every entry below, keeping the order given.
1. Cc1c(CCC(=O)O)ccc(OCc2conc2-c2ccc(Cl)cc2)c1C
2. O=C(O)CCc1cc(F)c(OCc2c(-c3ccc(F)cc3Cl)noc2C(F)(F)F)c(F)c1
3. Cc1c(CCC(=O)O)ccc(OCc2c(-c3ccc(Cl)cc3)noc2C2CC2)c1C
4. Cc1ccc(-c2noc(C(F)(F)F)c2COc2c(F)cc(CCC(=O)O)cc2F)cc1
5. O=C(O)CCc1cc(F)c(OCc2c(-c3ccc(F)cc3)noc2C(F)(F)F)c(F)c1
6. CCc1ccc(-n2cccc2COc2ccc(CCC(=O)O)c(C)c2C)cc1

Reply |
1: 5.56; 2: 6.54; 3: 5.96; 4: 6.74; 5: 6.64; 6: 6.12

Go through the items and report each one's pEC50.
1. CCc1ccc(-c2ccsc2COc2ccc(CCC(=O)O)c(C)c2C)cc1
2. CCc1ccc(-c2noc(C(F)(F)F)c2COc2c(F)cc(CCC(=O)O)cc2F)cc1

Reply |
1: 6.05; 2: 7.22
